The origin of these recorded values is paper PMC8151276.

Target: OPRM1 (Homo sapiens, UniProt P35372)
Construct: purchased Promega (in-house HiBiT-GPCR construct library, NanoBRET)
Sequence (P35372 whole entry): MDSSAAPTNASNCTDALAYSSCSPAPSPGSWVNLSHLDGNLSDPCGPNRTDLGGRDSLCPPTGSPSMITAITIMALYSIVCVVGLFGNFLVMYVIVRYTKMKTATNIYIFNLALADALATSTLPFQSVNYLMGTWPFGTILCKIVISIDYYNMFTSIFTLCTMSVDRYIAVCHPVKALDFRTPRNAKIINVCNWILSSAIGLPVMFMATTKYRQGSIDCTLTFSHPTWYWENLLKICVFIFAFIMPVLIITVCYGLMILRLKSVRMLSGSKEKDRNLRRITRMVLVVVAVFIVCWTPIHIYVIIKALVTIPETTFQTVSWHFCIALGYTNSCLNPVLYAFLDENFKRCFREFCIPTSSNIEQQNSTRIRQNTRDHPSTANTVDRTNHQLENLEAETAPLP
Assay: NanoBRET screen HiBiT-OPRM1 in HEK293
Format: binding
Settings: OPRM1; tracer 0.1μM
Entries and their NanoBRET Fold Response values follow.
metric-name: NanoBRET Fold Response

1. O=C(CCc1ccc2n1[B-](F)(F)[N+]1=C(c3ccc[nH]3)C=CC1=C2)NCc1ccc(C(=O)NCCOCCC(=O)N[C@@H]2CC[C@@]3(O)[C@H]4Cc5ccc(O)c6c5[C@@]3(CCN4CC3CC3)[C@H]2O6)cc1 [Naltrexone-3-NB590] = 1.59
2. CC(C)N(CC[C@H](c1ccccc1)c1cc(CCNC(=O)CCOCCOCCOCCOCCNC(=O)CCc2ccc3n2[B-](F)(F)[N+]2=C(c4ccc[nH]4)C=CC2=C3)ccc1O)C(C)C [Tolterodine-2-NB590] = 1.23
3. O=C(CCc1ccc2n1[B-](F)(F)[N+]1=C(c3ccc[nH]3)C=CC1=C2)NCCOCCOCCNC(=O)OCCOCCN1CCN(C2=Nc3ccccc3Sc3ccccc32)CC1 [Quetiapine-a-2-NB590] = 0.84
4. O=C(CCOCCOCCOCCOCCNC(=O)CCc1ccc2n1[B-](F)(F)[N+]1=C(c3ccc[nH]3)C=CC1=C2)NCCCN1CCN(C2=Nc3ccccc3Oc3ccc(Cl)cc32)CC1 [Loxapine-a-2-NB590] = 1.06
5. COc1ccccc1N1CCN(CCCCN2C(=O)c3ccc(CNC(=O)CCOCCNC(=O)c4ccc(CNC(=O)CCc5ccc6n5[B-](F)(F)[N+]5=C(c7ccc[nH]7)C=CC5=C6)cc4)cc3C2=O)CC1 [NAN-190-3-NB590] = 1.39

* * *

Target: CNR1 (Homo sapiens)
Construct: purchased Promega (in-house HiBiT-GPCR construct library, NanoBRET)
Sequence (P21554 whole entry): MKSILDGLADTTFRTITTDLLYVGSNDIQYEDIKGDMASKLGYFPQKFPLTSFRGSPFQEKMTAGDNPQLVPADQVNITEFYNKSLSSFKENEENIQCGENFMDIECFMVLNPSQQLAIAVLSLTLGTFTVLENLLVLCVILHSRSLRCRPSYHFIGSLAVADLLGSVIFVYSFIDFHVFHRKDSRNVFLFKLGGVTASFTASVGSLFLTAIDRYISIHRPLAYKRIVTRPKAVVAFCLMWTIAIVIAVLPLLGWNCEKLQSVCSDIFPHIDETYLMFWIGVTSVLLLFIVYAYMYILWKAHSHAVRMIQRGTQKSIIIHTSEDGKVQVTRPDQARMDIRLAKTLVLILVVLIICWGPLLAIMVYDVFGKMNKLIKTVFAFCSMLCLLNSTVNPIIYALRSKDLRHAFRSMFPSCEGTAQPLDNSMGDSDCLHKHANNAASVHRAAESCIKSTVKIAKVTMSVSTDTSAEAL
Experiment: NanoBRET screen HiBiT-CNR1 in HEK293
Type: binding
Details: CNR1; tracer 1μM
metric-name: NanoBRET Fold Response

1) Cc1nc2n(c(=O)c1CCN1CCC(c3noc4cc(F)ccc34)CC1)CCCC2OC(=O)NCCOCCOCCOCCOCCNC(=O)CCc1ccc2n1[B-](F)(F)[N+]1=C(c3ccc[nH]3)C=CC1=C2 (centres unmarked) [Risperidone-2-NB590] = 1.02
2) CN(C)CCC=C1c2ccccc2CCc2ccc(C(=O)NCCNC(=O)CCOCCOCCOCCOCCNC(=O)CCc3ccc4n3[B-](F)(F)[N+]3=C(c5ccc[nH]5)C=CC3=C4)cc21 [Amitriptyline-b-2-NB590] = 1.04
3) O=C(CCc1ccc2n1[B-](F)(F)[N+]1=C(c3ccc[nH]3)C=CC1=C2)NCCOCCOCCNC(=O)OCCOCCN1CCN(C2=Nc3ccccc3Sc3ccccc32)CC1 [Quetiapine-a-2-NB590] = 1.00
4) N#CN=C(NCCCOc1cccc(CN2CCCCC2)c1)NCCNC(=O)CCOCCOCCOCCOCCNC(=O)CCc1ccc2n1[B-](F)(F)[N+]1=C(c3ccc[nH]3)C=CC1=C2 [Aminopotentidine-2-NB590] = 1.00
5) O=C(CCc1ccc2n1[B-](F)(F)[N+]1=C(c3ccc[nH]3)C=CC1=C2)NCc1ccc(C(=O)NCCOCCC(=O)N[C@@H]2CC[C@@]3(O)[C@H]4Cc5ccc(O)c6c5[C@@]3(CCN4CC3CC3)[C@H]2O6)cc1 [Naltrexone-3-NB590] = 0.95

* * *

Entries and their NanoBRET Fold Response values follow.
Molecular target: GRM4 (Homo sapiens, UniProt Q14833)
Construct: purchased Promega (in-house HiBiT-GPCR construct library, NanoBRET)
Sequence (Q14833 33-912): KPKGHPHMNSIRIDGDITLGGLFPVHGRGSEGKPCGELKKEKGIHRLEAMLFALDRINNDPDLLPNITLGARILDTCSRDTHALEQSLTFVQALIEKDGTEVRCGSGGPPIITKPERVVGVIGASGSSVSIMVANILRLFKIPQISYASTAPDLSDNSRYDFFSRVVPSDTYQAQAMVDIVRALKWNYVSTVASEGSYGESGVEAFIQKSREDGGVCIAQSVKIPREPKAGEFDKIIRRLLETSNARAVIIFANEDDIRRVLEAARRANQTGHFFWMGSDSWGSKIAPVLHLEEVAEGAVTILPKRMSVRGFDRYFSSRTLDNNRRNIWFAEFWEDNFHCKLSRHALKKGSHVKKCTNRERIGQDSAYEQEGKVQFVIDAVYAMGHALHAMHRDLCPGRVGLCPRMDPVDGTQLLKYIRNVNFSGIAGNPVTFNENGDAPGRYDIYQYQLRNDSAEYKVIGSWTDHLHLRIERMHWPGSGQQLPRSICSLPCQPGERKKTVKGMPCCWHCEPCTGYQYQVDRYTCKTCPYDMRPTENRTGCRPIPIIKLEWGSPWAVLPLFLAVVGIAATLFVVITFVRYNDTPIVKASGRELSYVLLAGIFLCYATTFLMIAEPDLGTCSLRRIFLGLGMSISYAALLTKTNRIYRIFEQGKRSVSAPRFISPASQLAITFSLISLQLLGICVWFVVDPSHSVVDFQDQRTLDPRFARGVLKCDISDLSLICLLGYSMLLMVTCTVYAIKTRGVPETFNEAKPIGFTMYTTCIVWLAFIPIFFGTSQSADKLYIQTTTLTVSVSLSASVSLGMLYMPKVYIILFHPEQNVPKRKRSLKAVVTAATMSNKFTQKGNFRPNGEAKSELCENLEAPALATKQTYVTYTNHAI
Assay: NanoBRET screen HiBiT-GRM4 in HEK293
Type: binding
Conditions: GRM4; tracer 1μM
metric-name: NanoBRET Fold Response

1) O=C(CCc1ccc2n1[B-](F)(F)[N+]1=C(c3ccc[nH]3)C=CC1=C2)NCCOCCOCCNC(=O)OCCOCCN1CCN(C2=Nc3ccccc3Sc3ccccc32)CC1 = 0.92
2) Cc1nc2n(c(=O)c1CCN1CCC(c3noc4cc(F)ccc34)CC1)CCCC2OC(=O)NCCOCCOCCOCCOCCNC(=O)CCc1ccc2n1[B-](F)(F)[N+]1=C(c3ccc[nH]3)C=CC1=C2 (stereo not drawn) = 1.05
3) Cc1cc2c(s1)Nc1ccccc1N=C2N1CCN(CCCNC(=O)CCOCCOCCOCCOCCNC(=O)CCc2ccc3n2[B-](F)(F)[N+]2=C(c4ccc[nH]4)C=CC2=C3)CC1 = 0.93
4) CCCn1c(=O)c2[nH]c(-c3ccc(OCC(=O)NCCNC(=O)CCOCCNC(=O)c4ccc(CNC(=O)CCc5ccc6n5[B-](F)(F)[N+]5=C(c7ccc[nH]7)C=CC5=C6)cc4)cc3)nc2n(CCC)c1=O = 1.07
5) COc1ccccc1N1CCN(CCCCN2C(=O)c3ccc(CNC(=O)CCOCCNC(=O)c4ccc(CNC(=O)CCc5ccc6n5[B-](F)(F)[N+]5=C(c7ccc[nH]7)C=CC5=C6)cc4)cc3C2=O)CC1 = 1.33
6) O=C(CCc1ccc2n1[B-](F)(F)[N+]1=C(c3ccc[nH]3)C=CC1=C2)NCc1ccc(C(=O)NCCOCCC(=O)N[C@@H]2CC[C@@]3(O)[C@H]4Cc5ccc(O)c6c5[C@@]3(CCN4CC3CC3)[C@H]2O6)cc1 [Naltrexone-3-NB590] = 1.05
7) CC(C)N(CC[C@H](c1ccccc1)c1cc(CCNC(=O)CCOCCOCCOCCOCCNC(=O)CCc2ccc3n2[B-](F)(F)[N+]2=C(c4ccc[nH]4)C=CC2=C3)ccc1O)C(C)C = 1.14
8) CC(C)N(CC[C@H](c1ccccc1)c1cc(CCNC(=O)c2ccc(CNC(=O)CCc3ccc4n3[B-](F)(F)[N+]3=C(c5ccc[nH]5)C=CC3=C4)cc2)ccc1O)C(C)C = 0.99
9) CN(C)CCC=C1c2ccccc2CCc2ccc(C(=O)NCCNC(=O)CCOCCOCCOCCOCCNC(=O)CCc3ccc4n3[B-](F)(F)[N+]3=C(c5ccc[nH]5)C=CC3=C4)cc21 = 0.95
10) COc1ccccc1N1CCN(CCCCN2C(=O)c3ccc(CNC(=O)CCOCCOCCOCCOCCNC(=O)CCc4ccc5n4[B-](F)(F)[N+]4=C(c6ccc[nH]6)C=CC4=C5)cc3C2=O)CC1 = 0.97
11) O=C(CCOCCOCCOCCOCCNC(=O)CCc1ccc2n1[B-](F)(F)[N+]1=C(c3ccc[nH]3)C=CC1=C2)NCCCN1CCN(C2=Nc3ccccc3Oc3ccc(Cl)cc32)CC1 = 0.99
12) N#CN=C(NCCCOc1cccc(CN2CCCCC2)c1)NCCNC(=O)CCOCCOCCOCCOCCNC(=O)CCc1ccc2n1[B-](F)(F)[N+]1=C(c3ccc[nH]3)C=CC1=C2 = 1.01

* * *

Target: GRM8 (Homo sapiens, UniProt O00222)
Construct: purchased Promega (in-house HiBiT-GPCR construct library, NanoBRET)
Sequence (O00222 34-908): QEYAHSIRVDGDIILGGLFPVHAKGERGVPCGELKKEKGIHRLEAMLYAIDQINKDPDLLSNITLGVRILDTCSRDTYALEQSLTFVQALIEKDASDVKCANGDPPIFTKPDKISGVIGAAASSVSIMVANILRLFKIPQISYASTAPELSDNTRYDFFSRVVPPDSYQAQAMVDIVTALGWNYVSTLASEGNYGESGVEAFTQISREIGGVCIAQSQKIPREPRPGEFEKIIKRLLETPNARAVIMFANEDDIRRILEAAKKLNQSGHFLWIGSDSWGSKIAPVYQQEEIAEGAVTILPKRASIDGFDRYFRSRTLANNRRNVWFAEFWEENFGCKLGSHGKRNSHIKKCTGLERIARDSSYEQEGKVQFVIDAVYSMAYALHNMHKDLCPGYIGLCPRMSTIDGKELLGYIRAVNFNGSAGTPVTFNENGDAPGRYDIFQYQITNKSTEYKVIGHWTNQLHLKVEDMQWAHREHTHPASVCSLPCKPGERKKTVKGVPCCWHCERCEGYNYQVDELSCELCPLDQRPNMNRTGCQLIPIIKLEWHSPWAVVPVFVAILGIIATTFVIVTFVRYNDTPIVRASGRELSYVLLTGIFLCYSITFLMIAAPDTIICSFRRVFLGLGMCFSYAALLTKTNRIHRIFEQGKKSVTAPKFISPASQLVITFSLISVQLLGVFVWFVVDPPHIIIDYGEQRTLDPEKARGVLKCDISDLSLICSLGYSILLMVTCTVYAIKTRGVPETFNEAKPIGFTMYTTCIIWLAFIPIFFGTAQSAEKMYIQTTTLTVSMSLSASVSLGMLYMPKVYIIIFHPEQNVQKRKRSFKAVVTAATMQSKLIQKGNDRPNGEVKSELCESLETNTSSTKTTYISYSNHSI
Test: NanoBRET screen HiBiT-GRM8 in HEK293
Type: binding
Conditions: GRM8; tracer 1μM
Lab note: compare NanoBRET Fold Response against 1. Equal or greater, write true (1). Smaller, write false (0).

1. CC(C)N(CC[C@H](c1ccccc1)c1cc(CCNC(=O)CCOCCOCCOCCOCCNC(=O)CCc2ccc3n2[B-](F)(F)[N+]2=C(c4ccc[nH]4)C=CC2=C3)ccc1O)C(C)C [Tolterodine-2-NB590] = true (1)
2. O=C(CCOCCOCCOCCOCCNC(=O)CCc1ccc2n1[B-](F)(F)[N+]1=C(c3ccc[nH]3)C=CC1=C2)NCCCN1CCN(C2=Nc3ccccc3Oc3ccc(Cl)cc32)CC1 [Loxapine-a-2-NB590] = true (1)
3. COc1ccccc1N1CCN(CCCCN2C(=O)c3ccc(CNC(=O)CCOCCNC(=O)c4ccc(CNC(=O)CCc5ccc6n5[B-](F)(F)[N+]5=C(c7ccc[nH]7)C=CC5=C6)cc4)cc3C2=O)CC1 [NAN-190-3-NB590] = false (0)
4. O=C(CCc1ccc2n1[B-](F)(F)[N+]1=C(c3ccc[nH]3)C=CC1=C2)NCc1ccc(C(=O)NCCOCCC(=O)N[C@@H]2CC[C@@]3(O)[C@H]4Cc5ccc(O)c6c5[C@@]3(CCN4CC3CC3)[C@H]2O6)cc1 [Naltrexone-3-NB590] = false (0)

* * *

Entries and their NanoBRET Fold Response values follow.
Target: EDNRB (Homo sapiens)
Construct: purchased Promega (in-house HiBiT-GPCR construct library, NanoBRET)
Sequence (P24530 27-442): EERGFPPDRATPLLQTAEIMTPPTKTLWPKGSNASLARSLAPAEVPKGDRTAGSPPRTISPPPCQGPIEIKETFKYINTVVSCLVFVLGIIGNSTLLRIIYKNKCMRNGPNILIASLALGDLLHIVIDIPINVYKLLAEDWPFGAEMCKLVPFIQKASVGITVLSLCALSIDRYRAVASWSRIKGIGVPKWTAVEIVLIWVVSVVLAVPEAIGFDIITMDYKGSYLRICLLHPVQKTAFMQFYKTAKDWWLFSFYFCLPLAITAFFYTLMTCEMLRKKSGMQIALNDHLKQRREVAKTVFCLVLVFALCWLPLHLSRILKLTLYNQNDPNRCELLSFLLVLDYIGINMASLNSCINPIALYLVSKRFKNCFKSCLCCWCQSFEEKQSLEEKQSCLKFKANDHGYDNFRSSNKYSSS
Assay: NanoBRET screen HiBiT-EDNRB in HEK293
Assay type: binding
Details: EDNRB; tracer 0.1μM
metric-name: NanoBRET Fold Response

1. O=C(CCOCCOCCOCCOCCNC(=O)CCc1ccc2n1[B-](F)(F)[N+]1=C(c3ccc[nH]3)C=CC1=C2)NCCCN1CCN(C2=Nc3ccccc3Oc3ccc(Cl)cc32)CC1 = 1.05
2. CC(C)N(CC[C@H](c1ccccc1)c1cc(CCNC(=O)CCOCCOCCOCCOCCNC(=O)CCc2ccc3n2[B-](F)(F)[N+]2=C(c4ccc[nH]4)C=CC2=C3)ccc1O)C(C)C = 0.97
3. CC(C)N(CC[C@H](c1ccccc1)c1cc(CCNC(=O)c2ccc(CNC(=O)CCc3ccc4n3[B-](F)(F)[N+]3=C(c5ccc[nH]5)C=CC3=C4)cc2)ccc1O)C(C)C = 0.96
